Value source: patent US20230192789A1

Molecular target: recombinant HDMX (amino acids 1-490 of SEQ ID NO:104) (Homo sapiens, UniProt O15151)
Construct: thioredoxin (N, cleaved yes); S tag (N, cleaved yes); hexahistidine (N, cleaved yes); made in house; host or cells: E. coli (inferred: pET32-LIC vector, handled as described for HDM2 in BL21(DE3))
Sequence (O15151 1-490): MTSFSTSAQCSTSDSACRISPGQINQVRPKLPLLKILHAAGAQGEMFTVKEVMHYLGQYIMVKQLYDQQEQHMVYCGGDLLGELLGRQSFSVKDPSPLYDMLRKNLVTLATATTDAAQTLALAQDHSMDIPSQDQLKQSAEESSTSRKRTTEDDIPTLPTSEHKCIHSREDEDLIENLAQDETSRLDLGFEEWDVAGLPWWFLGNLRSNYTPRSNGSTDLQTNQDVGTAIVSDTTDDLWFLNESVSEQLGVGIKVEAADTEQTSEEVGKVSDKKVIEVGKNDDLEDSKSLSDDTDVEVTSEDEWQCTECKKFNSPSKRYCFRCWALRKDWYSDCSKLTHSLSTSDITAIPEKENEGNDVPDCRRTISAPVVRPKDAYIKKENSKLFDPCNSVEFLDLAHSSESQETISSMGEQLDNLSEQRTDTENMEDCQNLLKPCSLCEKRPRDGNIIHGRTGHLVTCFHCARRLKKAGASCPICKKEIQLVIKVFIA
Test: Competitive streptavidin pull-down of biotinylated peptides with 1:1 recombinant HDM2/HDMX mixture, HDMX western
Type: binding
Settings: biotinylated stapled peptide, 1:1 mixture of recombinant HDM2 and HDMX
Bridges are numbered along the chain shown (N, C = ends). Where no end group is shown, it is not given here. [ ]: non-standard residue; d: D form. R8 = C=CCCCCCC[C@@](C)(N)C(=O)O; S5 = C=CCCC[C@](C)(N)C(=O)O
assay-readout: HDMX versus HDM2 binding selectivity

[ask] Enter reported HDMX versus HDM2 binding selectivity observed with recombinant HDMX (amino acids 1-490 of SEQ ID NO:104) (Homo sapiens, UniProt O15151) for SAH-p53-4 L14E: Formula (I) stapled peptide: [Xaa]w ESQETF, [Xaa]x DLWKLL, [Xaa]y EN (ESQETF[R8]DLWKLL[S5]EN-NH2; staple 7-14; also: biotinylated)
[reply] selectivity to HDM2

[ask] Likewise for SAH-p53-4 T18R: Formula (I) stapled peptide: [Xaa]w LSQERF, [Xaa]x DLWKLL, [Xaa]y EN (LSQERF[R8]DLWKLL[S5]EN-NH2; staple 7-14; not fully specified) ?
[reply] selectivity to HDM2

[ask] Likewise for SAH-p53-4 S15E: Formula (I) stapled peptide: [Xaa]w LEQETF, [Xaa]x DLWKLL, [Xaa]y EN (LEQETF[R8]DLWKLL[S5]EN-NH2; staple 7-14; not fully specified) ?
[reply] selectivity to HDM2
